Experiment: protein stability index of a GFP-peptide fusion (yeast GPS) (PSI 1-4); higher = more stable; sorted into four equal gates, so the index is relative within each strain
Conditions: san1∆
propertyName: protein stability index

- biopolymerSequence: "NNRSVSMQTIAETIILS [SRB5]"
  measValue: 1.56
- biopolymerSequence: "SSATIVLCLTRSSYMLE [YCG1]"
  measValue: 1.91
- biopolymerSequence: "IFAGAFVFQTVFDTAIT [QCR9]"
  measValue: 1.48
- biopolymerSequence: "AIKKSSMKMELLKKELL [SMC2]"
  measValue: 2.78
- biopolymerSequence: "YQNQFVEFCRNINSTDK [YML103C/NUP188]"
  measValue: 2.6
- biopolymerSequence: "YLTPPHECRLRDMTYSA [RET1]"
  measValue: 2.76
- biopolymerSequence: "FEGTPPFSLTYVRTEET [YMR129W/POM152]"
  measValue: 2.54
- biopolymerSequence: "DANGVSLFELIVPIFQL [YJL039C/NUP192]"
  measValue: 2.25
- biopolymerSequence: "EEQEEEPDREKIKLLTQ [RPC19]"
  measValue: 2.52
- biopolymerSequence: "LPTRYTLDVEAFKSVVS [RPL27A]"
  measValue: 1.62
- biopolymerSequence: "RYLAVTLQDIGFYQIKK [YMR129W/POM152]"
  measValue: 2.73
- biopolymerSequence: "HYMVHEALNLLKFFLVD [LIN1]"
  measValue: 1.79
- biopolymerSequence: "LNGILADEMGLGKTIQT [SNF2]"
  measValue: 3.29
- biopolymerSequence: "DDYSNEDNEMLEDLFSY [YJR042W/NUP85]"
  measValue: 1.76
- biopolymerSequence: "NPLAKTMADAVRELGIL [SEC65]"
  measValue: 2.42
- biopolymerSequence: "SYRNGMASYMLNSFAFE [YJR042W/NUP85]"
  measValue: 2.6

###

Experiment: protein stability index of a GFP-peptide fusion (yeast GPS) (PSI 1-4); higher = more stable; sorted into four equal gates, so the index is relative within each strain
Details: san1∆

- biopolymerSequence: "QQQSSQNTVPNVLNQIN [GAL11]"
  protein stability index: 1.71
- biopolymerSequence: "RKCCNHPYLFEGAEPGP [ISW2]"
  protein stability index: 3.11
- biopolymerSequence: "VVQDSQTATQLLERGRL [SMC2]"
  protein stability index: 2.81
- biopolymerSequence: "LKEVPTYRYVSVSVLVD [RPS25A]"
  protein stability index: 1.33
- biopolymerSequence: "PLRMETIPILESDSKAT [DSN1]"
  protein stability index: 2.59
- biopolymerSequence: "VQKRDEVKEQLGILKKK [SMC4]"
  protein stability index: 3.24
- biopolymerSequence: "MNGNTNANTVFAGSNNQ [YOR098C/NUP1]"
  protein stability index: 3.31
- biopolymerSequence: "LRLFNAPDSEYLCFILS [SNF2]"
  protein stability index: 2.15
- biopolymerSequence: "VARIPRVGGGGTGRSGQ [RPL4A]"
  protein stability index: 3.48
- biopolymerSequence: "LNEYKRETLVKTWEKVT [SMC2]"
  protein stability index: 1.77
- biopolymerSequence: "FLIDVLKIYAQIEKKEI [YCG1]"
  protein stability index: 1.21
- biopolymerSequence: "PEREVLVRELYQWRDLI [RRP6]"
  protein stability index: 2.67
- biopolymerSequence: "HAQSKREGRHSGYGKRK [RPL19A]"
  protein stability index: 2.85
- biopolymerSequence: "VDNDNWVYKTKGDGMTS [RPN1]"
  protein stability index: 3
- biopolymerSequence: "MNGRSLTYAQQQLNKQR [SNF6]"
  protein stability index: 3.02
- biopolymerSequence: "ESRAQNVFGQDNEDSDN [SWI3]"
  protein stability index: 3.33
- biopolymerSequence: "TRQSSRNFDTHENYIQD [MCD1]"
  protein stability index: 2.84
- biopolymerSequence: "SGNLPLNELSAKDKEIY [RPN13]"
  protein stability index: 3.27

// data source = the supplement of paper PMC9732359
